self-splicing fitness (ln) values, listed per item
Assay: self-splicing fitness, log relative to wild type (ln ratio); higher = more splicing; Tetrahymena group I intron in knt gene, E. coli kanamycin selection, DiMSum; sequences stand for … in CUCUCU…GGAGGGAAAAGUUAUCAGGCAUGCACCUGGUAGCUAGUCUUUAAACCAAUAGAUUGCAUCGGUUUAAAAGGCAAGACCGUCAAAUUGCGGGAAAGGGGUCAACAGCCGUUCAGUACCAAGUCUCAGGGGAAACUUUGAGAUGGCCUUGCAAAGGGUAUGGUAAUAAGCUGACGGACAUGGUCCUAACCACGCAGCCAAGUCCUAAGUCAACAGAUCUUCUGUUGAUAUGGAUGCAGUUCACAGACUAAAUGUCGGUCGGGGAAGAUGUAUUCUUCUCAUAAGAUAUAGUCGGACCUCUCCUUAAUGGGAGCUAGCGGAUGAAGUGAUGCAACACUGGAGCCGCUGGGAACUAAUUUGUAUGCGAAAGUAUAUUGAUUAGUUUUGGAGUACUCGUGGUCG;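 further: selection with 25 µg/mL kanamycin versus none on LB agar overnight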
Settings: 30 °C
Hey, just send me the number, nothing else.

Example entries and their recorded answers appear below.
CGGCAGCAAUAUUACGCGGG    -2.12
CGUUAGCAAUAUUACGGUUG    -0.758
AUAUAGCAAUAUUACGGAAU    -1.92
UGAAAGCAAUAUUACGGUUC    -4.11
GUGCAGCAAUAUUACGUUCA    0.191
AAGGAGCAAUAUUACGCUGG    -2.18
UCAUAGCAAUAUUACGACCG    -1.36
UAUGAGCAAUAUUACGCCAG    -2.96

Okay, next one:
Inquiry: Look up self-splicing fitness (ln) for this sequence: `UUGCAGCAAUAUUACGAUGC`
Reply text: -3.16
